experiment_summary: Pharmacokinetics in pediatric patients, open label multiple dose study
measurement_context: human, in vivo, 2 mg/kg, 6-11 yrs old, 2 mg/kg, Day 1; read-out: AUCtau, Mean
readout_label: AUC (ng·h/mL)

# smiles_representation, readout_label, reported
measured = [
    ("COCCCOc1cc(C[C@@H](C[C@H](N)[C@@H](O)C[C@H](C(=O)NCC(C)(C)C(N)=O)C(C)C)C(C)C)ccc1OC", "AUC", 149),
]

---

experiment_summary: Pharmacokinetics in pediatric patients, open label multiple dose study
measurement_context: human, in vivo, 6 mg/kg, 12-17 yrs old, 6 mg/kg, Day 1; read-out: AUCtau, Mean
Procedure: An open label, multiple dose pharmacokinetic and pharmacodynamic study was performed in 24 pediatric patients, ages 6-17 years. […] Blood samples were collected on days one and eight and pharmacokinetics were assessed using a non-compartmental analysis approach.
readout_label: AUC (ng·h/mL)

# compound, readout_label, reported
rows = [
    ("COCCCOc1cc(C[C@@H](C[C@H](N)[C@@H](O)C[C@H](C(=O)NCC(C)(C)C(N)=O)C(C)C)C(C)C)ccc1OC [Aliskiren]", "AUC", 1800),
]

---

experiment_summary: Pharmacokinetics in pediatric patients, open label multiple dose study
measurement_context: human, in vivo, 2 mg/kg, 6-11 yrs old, 2 mg/kg, Day 8; read-out: Tmax, Median
Protocol: An open label, multiple dose pharmacokinetic and pharmacodynamic study was performed in 24 pediatric patients, ages 6-17 years. […] Blood samples were collected on days one and eight and pharmacokinetics were assessed using a non-compartmental analysis approach.
readout_label: Tmax (min)

# smiles_representation, unit_label, reported
records = [
    ("COCCCOc1cc(C[C@@H](C[C@H](N)[C@@H](O)C[C@H](C(=O)NCC(C)(C)C(N)=O)C(C)C)C(C)C)ccc1OC", "min", 30),
]

---

experiment_summary: Pharmacokinetics in pediatric patients, open label multiple dose study
measurement_context: human, in vivo, 6 mg/kg, 6-11 yrs old, 6 mg/kg, Day 8; read-out: AUCtau, Mean

# smiles_representation, AUC
rows = [
    ("COCCCOc1cc(C[C@@H](C[C@H](N)[C@@H](O)C[C@H](C(=O)NCC(C)(C)C(N)=O)C(C)C)C(C)C)ccc1OC", "956 ng·h/mL"),
]

---

experiment_summary: Pharmacokinetics in pediatric patients, open label multiple dose study
measurement_context: human, in vivo, 6 mg/kg, 6-11 yrs old, 6 mg/kg, Day 1; read-out: AUCtau, Mean

# molecule, AUC, ng·h/mL
data = [
    ("COCCCOc1cc(C[C@@H](C[C@H](N)[C@@H](O)C[C@H](C(=O)NCC(C)(C)C(N)=O)C(C)C)C(C)C)ccc1OC [Aliskiren]", 1840),
]

---

experiment_summary: Pharmacokinetics in pediatric patients, open label multiple dose study
measurement_context: human, in vivo, 2 mg/kg, 6-11 yrs old, 2 mg/kg, Day 1

# smiles_representation, Cmax
data = [
    ("COCCCOc1cc(C[C@@H](C[C@H](N)[C@@H](O)C[C@H](C(=O)NCC(C)(C)C(N)=O)C(C)C)C(C)C)ccc1OC", "39 ng/mL"),
]

---

experiment_summary: Pharmacokinetics in pediatric patients, open label multiple dose study
measurement_context: human, in vivo, 6 mg/kg, 6-11 yrs old, 6 mg/kg, Day 1; read-out: Tmax, Median

# smiles_representation, unit_label, Tmax
measured = [
    ("COCCCOc1cc(C[C@@H](C[C@H](N)[C@@H](O)C[C@H](C(=O)NCC(C)(C)C(N)=O)C(C)C)C(C)C)ccc1OC", "h", 1.3),
]
